# system name: the molecule itself
# assay overview: FRET or BRET

protein: CFP–PhoP / YFP–PhoP, phosphorylated (natural protein, phosphorylated in vitro with phosphoramidate and MgSO4 (conserved aspartate of the receiver domain; residue number not given)) MRVLVVEDNALLRHHLKVQIQDAGHQVDDAEDAKEADYYLNEHIPDIAIVDLGLPDEDGLSLIRRWRSNDVSLPILVLTARESWQDKVEVLSAGADDYVTKPFHIEEVMARMQALMRRNSGLASQVISLPPFQVDLSRRELSINDEVIKLTAFEYTIMETLIRNNGKVVSKDSLMLQLYPDAELRESHTIDVLMGRLRKKIQAQYPQEVITTVRGQGYLFELR
binding result: binds

protein: CFP–KdpE / YFP–KdpE, phosphorylated (natural protein, phosphorylated in vitro with phosphoramidate and MgSO4 (conserved aspartate of the receiver domain; residue number not given)) MTNVLIVEDEQAIRRFLRTALEGDGMRVFEAETLQRGLLEAATRKPDLIILDLGLPDGDGIEFIRDLRQWSAVPVIVLSARSEESDKIAALDAGADDYLSKPFGIGELQARLRVALRRHSATTAPDPLVKFSDVTVDLAARVIHRGEEEVHLTPIEFRLLAVLLNNAGKVLTQRQLLNQVWGPNAVEHSHYLRIYMGHLRQKLEQDPARPRHFITETGIGYRFML
binding result: binds

protein: CFP–CreB / YFP–CreB, phosphorylated (natural protein, phosphorylated in vitro with phosphoramidate and MgSO4 (conserved aspartate of the receiver domain; residue number not given)) MQRETVWLVEDEQGIADTLVYMLQQEGFAVEVFERGLPVLDKARKQVPDVMILDVGLPDISGFELCRQLLALHPALPVLFLTARSEEVDRLLGLEIGADDYVAKPFSPREVCARVRTLLRRVKKFSTPSPVIRIGHFELNEPAAQISWFDTPLALTRYEFLLLKTLLKSPGRVWSRQQLMDSVWEDAQDTYDRTVDTHIKTLRAKLRAINPDLSPINTHRGMGYSLRGL
binding result: binds

All figures here come from paper PMC2586830.
